test system: Stenotrophomonas maltophilia; assay: Antimicrobial activity against Stenotrophomonas maltophilia at 64 ug/mL by broth micro dilution assay; format: functional, organism-based
Calls of active or inactive are those of the source. The calls are words filed in the database; no cut-off is given here.

| structure.as.smiles | Activity |
| --- | --- |
| C=C1CC[C@@]2(OC1)O[C@H]1C[C@H]3[C@@H]4CC=C5C[C@@H](O[C@@H]6O[C@H](CO)[C@@H](O[C@@H]7O[C@@H](C)[C@H](O)[C@@H](O)[C@H]7O)[C@H](O)[C@H]6O[C@@H]6O[C@@H](C)[C@H](O)[C@@H](O)[C@H]6O)CC[C@]5(C)[C@H]4CC[C@]3(C)[C@H]1[C@@H]2C | inactive |
| C[C@@H]1CC[C@@]2(OC1)O[C@H]1C[C@H]3[C@@H]4CC=C5C[C@@H](O[C@@H]6O[C@H](CO)[C@@H](O)[C@H](O)[C@H]6O[C@@H]6O[C@@H](C)[C@H](O)[C@@H](O)[C@H]6O)CC[C@]5(C)[C@H]4CC[C@]3(C)[C@H]1[C@@H]2C | inactive |

----------
test system: SF-268; test: Growth inhibition of human SF268 cells after 48 hrs; assay type: functional; details: SF-268, 48 h
endpoint.name: GI50 (µg/mL)
Numbers only, in µg/mL.

Recorded GI50 (molecule C[C@@H]1CC[C@@]2(OC1)O[C@H]1C[C@H]3[C@@H]4CC=C5C[C@@H](O[C@@H]6O[C@H](CO)[C@@H](O[C@@H]7O[C@@H](C)[C@H](O)[C@@H](O)[C@H]7O)[C@H](O)[C@H]6O[C@@H]6O[C@@H](C)[C@H](O)[C@@H](O)[C@H]6O)CC[C@]5(C)[C@H]4CC[C@]3(C)[C@H]1[C@@H]2C ): 1.2

----------
Please go through the items and note down their GI50.
system: MCF7; experiment: Growth inhibition of human MCF7 cells after 48 hrs; type: functional; details: MCF7, 48 h
Answers are plain numbers, in µg/mL.

| structure.as.smiles | unit.string | GI50 |
| --- | --- | --- |
| C[C@@H]1CC[C@@]2(OC1)O[C@H]1C[C@H]3[C@@H]4CC=C5C[C@@H](O[C@@H]6O[C@H](CO)[C@@H](O)[C@H](O)[C@H]6O[C@@H]6O[C@@H](C)[C@H](O)[C@@H](O)[C@H]6O)CC[C@]5(C)[C@H]4CC[C@]3(C)[C@H]1[C@@H]2C | µg/mL | 2 |

Now take the following molecule into account.
GI50 reported for this molecule C[C@@H]1CC[C@@]2(OC1)O[C@H]1C[C@H]3[C@@H]4CC=C5C[C@@H](O[C@@H]6O[C@H](CO)[C@@H](O[C@@H]7O[C@@H](C)[C@H](O)[C@@H](O)[C@H]7O)[C@H](O)[C@H]6O[C@@H]6O[C@@H](C)[C@H](O)[C@@H](O)[C@H]6O)CC[C@]5(C)[C@H]4CC[C@]3(C)[C@H]1[C@@H]2C : 1.6

----------
tested on: MCF7; assay: Growth inhibition of human MCF7 cells after 48 hrs; assay type: functional; settings: MCF7, 48 h
endpoint.name: GI50 (µg/mL)
Numbers only, in µg/mL.

Here's what some known entries look like.
| structure.as.smiles | GI50 (µg/mL) |
| --- | --- |
| C[C@@H]1CC[C@@]2(OC1)O[C@H]1C[C@H]3[C@@H]4CC=C5C[C@@H](O[C@@H]6O[C@H](CO)[C@@H](O[C@@H]7OC[C@@H](O)[C@H](O)[C@H]7O)[C@H](O)[C@H]6O[C@@H]6O[C@@H](C)[C@H](O)[C@@H](O)[C@H]6O)CC[C@]5(C)[C@H]4CC[C@]3(C)[C@H]1[C@@H]2C | 1.4 |
| C[C@@H]1CC[C@@]2(OC1)O[C@H]1C[C@H]3[C@@H]4CC=C5C[C@@H](O[C@@H]6O[C@H](CO)[C@@H](O[C@@H]7OC[C@H](O)[C@H](O)[C@H]7O)[C@H](O)[C@H]6O[C@@H]6O[C@@H](C)[C@H](O)[C@@H](O)[C@H]6O)CC[C@]5(C)[C@H]4CC[C@]3(C)[C@H]1[C@@H]2C | 0.62 |

In the following, a different compound is considered.
Query C=C1CC[C@@]2(OC1)O[C@H]1C[C@H]3[C@@H]4CC=C5C[C@@H](O[C@@H]6O[C@H](CO)[C@@H](O[C@@H]7O[C@@H](C)[C@H](O)[C@@H](O)[C@H]7O)[C@H](O)[C@H]6O[C@@H]6O[C@@H](C)[C@H](O)[C@@H](O)[C@H]6O)CC[C@]5(C)[C@H]4CC[C@]3(C)[C@H]1[C@@H]2C yields GI50 of 1.1
